Here we list molecules with their recorded IC50 when tested on Met kinase (Homo sapiens).
Sequence (P08581 974-1390 limits assumed): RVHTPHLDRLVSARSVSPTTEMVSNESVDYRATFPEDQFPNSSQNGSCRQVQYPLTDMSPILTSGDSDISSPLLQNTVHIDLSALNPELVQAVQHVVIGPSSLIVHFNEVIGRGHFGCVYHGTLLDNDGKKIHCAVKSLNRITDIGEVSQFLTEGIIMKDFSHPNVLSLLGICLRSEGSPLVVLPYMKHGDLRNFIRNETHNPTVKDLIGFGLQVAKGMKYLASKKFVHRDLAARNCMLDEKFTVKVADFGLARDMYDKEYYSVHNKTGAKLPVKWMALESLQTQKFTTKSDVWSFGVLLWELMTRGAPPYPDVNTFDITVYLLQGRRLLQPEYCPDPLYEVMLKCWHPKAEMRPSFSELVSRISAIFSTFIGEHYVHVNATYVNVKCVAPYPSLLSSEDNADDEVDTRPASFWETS

What does the record list as IC50 for CCOC(=O)Nc1cccc(Cn2nc(-c3cccc(C(=O)NCCN(C)C)c3)ccc2=O)c1 ?
10 to 1000 nM

Also CCOC(=O)Nc1cccc(Cn2nc(-c3ccc(CN(Cc4ncc[nH]4)Cc4ncc[nH]4)cc3)ccc2=O)c1 , if possible.
10 to 1000 nM

Also CCOC(=O)Nc1cccc(Cn2nc(-c3ccc(C(=O)NCCN(C)C)cc3)ccc2=O)c1 , if possible.
10 to 1000 nM

Also CCOC(=O)Nc1cccc(Cn2nc(-c3ccc(C(=O)NCCCN(C)C)cc3)ccc2=O)c1 , if possible.
10 to 1000 nM

Also CCOC(=O)Nc1cccc(Cn2nc(-c3cccc(CNC(=O)Cn4ccccc4=O)c3)ccc2=O)c1 , if possible.
10 to 1000 nM

Data provenance: patent US8367668B2
